- measurement target: human recombinant HDAC6 (Homo sapiens)
- Construct: purchased Calbiochem Inc. 382180
- method summary: HDAC6 enzyme activity inhibition (HDAC Fluorimetric Drug Discovery Kit)
- Type: biochemical
- condition info: HDAC1 IC50 / HDAC6 IC50
quantity kind: HDAC6 selectivity (fold)
Units required after the number.

[
  {
    "sample smiles": "O=C(c1cccc(-c2cn(Cc3ccc(-c4nnc(C(F)F)o4)cn3)nn2)c1)N1CCCC1",
    "result": "1655 fold"
  },
  {
    "sample smiles": "Fc1cc(-c2nnc(C(F)F)o2)ccc1Cn1cc(-c2cccc(N3CCOCC3)c2)nn1",
    "result": "1623 fold"
  },
  {
    "sample smiles": "CC(C)(C)C(=O)N1CCC(c2cn(Cc3ccc(-c4nnc(C(F)F)o4)cn3)nn2)CC1",
    "result": "326 fold"
  },
  {
    "sample smiles": "FC(F)c1nnc(-c2ccc(Cn3cc(-c4ccc5[nH]cc(CN6CCOCC6)c5c4)nn3)nc2)o1",
    "result": "5617 fold"
  },
  {
    "sample smiles": "CC(C)N1CC(c2cn(Cc3ccc(-c4nnc(C(F)F)o4)cn3)nn2)C1",
    "result": "76 fold"
  }
]

# input Answer with the recorded HDAC6 selectivity (fold) for the compound listed here: CN1CCN(c2cc(-c3cn(Cc4ccc(-c5nnc(C(F)F)o5)cc4F)nn3)ccc2F)CC1
# output 559 fold

# input Entry CC(=O)N1CCC(c2cn(Cc3ccc(-c4nnc(C(F)F)o4)cn3)nn2)CC1 needs its HDAC6 selectivity (fold) filled in; supply it.
# output 241 fold

# input Read the entry CN(C)c1cccc(-c2cn(Cc3ccc(-c4nnc(C(F)F)o4)cn3)nn2)c1 and write its reported HDAC6 selectivity (fold).
# output 2439 fold

----------
- measurement target: human recombinant HDAC6 (Homo sapiens, UniProt Q9UBN7)
- Construct: purchased Calbiochem Inc. 382180
- Sequence (Q9UBN7 whole entry): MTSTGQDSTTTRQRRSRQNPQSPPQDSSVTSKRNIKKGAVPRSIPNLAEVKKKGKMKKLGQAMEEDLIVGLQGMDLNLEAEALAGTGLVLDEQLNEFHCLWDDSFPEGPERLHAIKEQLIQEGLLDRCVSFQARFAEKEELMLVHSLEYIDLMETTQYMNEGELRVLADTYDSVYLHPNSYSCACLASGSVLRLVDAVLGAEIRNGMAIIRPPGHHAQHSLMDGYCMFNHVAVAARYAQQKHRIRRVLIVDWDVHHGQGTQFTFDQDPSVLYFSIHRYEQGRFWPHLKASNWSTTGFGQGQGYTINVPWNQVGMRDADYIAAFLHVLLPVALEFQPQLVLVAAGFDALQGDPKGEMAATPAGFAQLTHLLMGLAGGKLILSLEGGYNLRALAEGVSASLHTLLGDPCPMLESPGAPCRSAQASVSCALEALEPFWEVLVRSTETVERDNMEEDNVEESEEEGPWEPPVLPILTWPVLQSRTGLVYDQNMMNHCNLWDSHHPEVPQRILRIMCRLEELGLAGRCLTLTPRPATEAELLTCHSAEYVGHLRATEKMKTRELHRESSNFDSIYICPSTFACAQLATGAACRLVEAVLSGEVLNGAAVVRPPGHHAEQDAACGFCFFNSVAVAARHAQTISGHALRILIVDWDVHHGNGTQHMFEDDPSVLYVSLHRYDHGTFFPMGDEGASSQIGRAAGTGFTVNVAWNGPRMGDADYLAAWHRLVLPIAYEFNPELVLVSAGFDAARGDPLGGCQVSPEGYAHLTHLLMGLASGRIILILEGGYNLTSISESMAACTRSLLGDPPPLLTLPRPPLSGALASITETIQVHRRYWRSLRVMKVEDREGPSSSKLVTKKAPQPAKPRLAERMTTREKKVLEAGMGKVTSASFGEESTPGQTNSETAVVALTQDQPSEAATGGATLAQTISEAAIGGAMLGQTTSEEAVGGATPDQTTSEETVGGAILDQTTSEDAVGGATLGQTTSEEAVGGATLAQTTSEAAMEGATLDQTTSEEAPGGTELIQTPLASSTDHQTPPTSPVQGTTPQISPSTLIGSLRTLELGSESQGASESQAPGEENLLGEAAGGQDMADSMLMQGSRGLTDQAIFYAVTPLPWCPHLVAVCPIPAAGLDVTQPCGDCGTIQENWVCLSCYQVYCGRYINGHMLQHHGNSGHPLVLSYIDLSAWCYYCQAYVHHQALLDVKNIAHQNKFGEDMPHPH
- method summary: HDAC6 enzyme activity inhibition (HDAC Fluorimetric Drug Discovery Kit)
- Type: biochemical
- condition info: human recombinant HDAC6, same protocol as HDAC1
- Procedure: An experiment was conducted to identify the selectivity of the compound represented by formula I of the present invention to HDAC6 through an experiment on HDAC1 and HDAC6 enzyme activity inhibition. […]
quantity kind: pIC50
In textbook form, pIC50 equals minus log to base ten of the concentration in mol/L.

As a guide, the following entries are already answered.
[
  {
    "sample smiles": "CN1Cc2cccc(-c3cn(Cc4ccc(-c5nnc(C(F)F)o5)cn4)nn3)c2C1",
    "quantity kind": "pIC50",
    "measured number": 7.32
  },
  {
    "sample smiles": "CN(C)Cc1cccc(-c2cn(Cc3ccc(-c4nnc(C(F)F)o4)cc3F)nn2)c1Cl",
    "quantity kind": "pIC50",
    "measured number": 7.31
  },
  {
    "sample smiles": "CN1CCc2ccc(-c3cn(Cc4ncc(-c5nnc(C(F)F)o5)cc4F)nn3)cc2C1",
    "quantity kind": "pIC50",
    "measured number": 7.07
  },
  {
    "sample smiles": "CN1Cc2cccc(-c3cn(Cc4ccc(-c5nnc(C(F)F)o5)cc4)nn3)c2C1",
    "quantity kind": "pIC50",
    "measured number": 6.80
  }
]

# input Look up and report measured pIC50 for this entry: Fc1cc(-c2nnc(C(F)F)o2)ccc1Cn1cc(-c2ccc(CNC3CCCC3)cc2)nn1
# output 7.80

# input Name the recorded pIC50 of the item FC(F)c1nnc(-c2ccc(Cn3cc(-c4cccc5c4CN(C4COC4)C5)nn3)cc2)o1 in your answer.
# output 6.80

# input State, in one line, measured pIC50 of CCN1CCN(Cc2ccc(-c3cn(Cc4ccc(-c5nnc(C(F)F)o5)cc4)nn3)cc2)CC1
# output 7.29

# input Please give the documented pIC50 of CCN1CCN(c2cccc(-c3cn(Cc4ccc(-c5nnc(C(F)F)o5)cn4)nn3)c2F)CC1
# output 7.69

# input Determine its reported pIC50: FC1CN(Cc2ccc(-c3cn(Cc4ccc(-c5nnc(C(F)F)o5)cc4)nn3)cc2)C1
# output 7.39

----------
# key: entry, value: HDAC6 selectivity (fold)
- measurement target: human recombinant HDAC6 (Homo sapiens, UniProt Q9UBN7)
- Construct: purchased Calbiochem Inc. 382180
- method summary: HDAC6 enzyme activity inhibition (HDAC Fluorimetric Drug Discovery Kit)
- Format: biochemical
- condition info: HDAC6 over HDAC1
Answer with a number only, understood to be in fold.

Consider the reported HDAC6 selectivity (fold) for these molecules:
[
  {
    "sample smiles": "CC(C)N1Cc2cccc(-c3cn(Cc4ccc(-c5nnc(C(F)F)o5)cc4F)nn3)c2C1",
    "unit of measure": "fold",
    "HDAC6 selectivity (fold)": 572
  },
  {
    "sample smiles": "Fc1cc(-c2nnc(C(F)F)o2)ccc1Cn1cc(-c2cccc(N3CCN(C4COC4)CC3)c2F)nn1",
    "unit of measure": "fold",
    "HDAC6 selectivity (fold)": 1908
  }
]

# input Please list HDAC6 selectivity (fold) recorded for the molecule CC(C)(C)OC(=O)N1CCC(c2cccc(-c3cn(Cc4ncc(-c5nnc(C(F)F)o5)cc4F)nn3)c2)CC1
# output 90

# input Note down HDAC6 selectivity (fold) recorded for Fc1cc(-c2nnc(C(F)F)o2)ccc1Cn1cc(-c2ccc(CN3CC[C@H](F)C3)cn2)nn1
# output 806

----------
- measurement target: human recombinant HDAC6 (Homo sapiens, UniProt Q9UBN7)
- Construct: purchased Calbiochem Inc. 382180
- method summary: HDAC6 enzyme activity inhibition (HDAC Fluorimetric Drug Discovery Kit)
- Format: biochemical
- condition info: HDAC1 IC50 / HDAC6 IC50
Catalogue of HDAC6 selectivity (fold) readings, one per entry.
Reply numerically in fold, unit not repeated.

Known HDAC6 selectivity (fold) results, listed for orientation:
[
  {
    "molecule": "FC(F)c1nnc(-c2ccc(Cn3cc(-c4cccc(N5CCOCC5)c4)nn3)nc2)o1",
    "quantity kind": "HDAC6 selectivity (fold)",
    "unit of measure": "fold",
    "measured number": 2688
  },
  {
    "molecule": "Fc1cc(-c2nnc(C(F)F)o2)ccc1Cn1cc(-c2ccc3[nH]ccc3c2)nn1",
    "quantity kind": "HDAC6 selectivity (fold)",
    "unit of measure": "fold",
    "measured number": 2941
  },
  {
    "molecule": "OC1(c2cn(Cc3ccc(-c4nnc(C(F)F)o4)cc3F)nn2)CCOC1 (stereo not drawn)",
    "quantity kind": "HDAC6 selectivity (fold)",
    "unit of measure": "fold",
    "measured number": 182
  },
  {
    "molecule": "CC(C)(C)C(=O)Nc1cccc(-c2cn(Cc3ccc(-c4nnc(C(F)F)o4)cn3)nn2)c1",
    "quantity kind": "HDAC6 selectivity (fold)",
    "unit of measure": "fold",
    "measured number": 4464
  },
  {
    "molecule": "FC(F)c1nnc(-c2ccc(Cn3cc(-c4cccc(N5CCN(C6COC6)CC5)c4)nn3)nc2)o1",
    "quantity kind": "HDAC6 selectivity (fold)",
    "unit of measure": "fold",
    "measured number": 1597
  },
  {
    "molecule": "FC(F)c1nnc(-c2ccc(Cn3cc(-c4cccc(CN5CCC5)c4)nn3)nc2)o1",
    "quantity kind": "HDAC6 selectivity (fold)",
    "unit of measure": "fold",
    "measured number": 841
  },
  {
    "molecule": "Fc1cc(-c2nnc(C(F)F)o2)ccc1Cn1cc(-c2cccc(N3CCN(C4COC4)CC3)c2)nn1",
    "quantity kind": "HDAC6 selectivity (fold)",
    "unit of measure": "fold",
    "measured number": 1428
  },
  {
    "molecule": "FC(F)c1nnc(-c2ccc(Cn3cc(-c4cccc(CN5CCOCC5)c4)nn3)nc2)o1",
    "quantity kind": "HDAC6 selectivity (fold)",
    "unit of measure": "fold",
    "measured number": 1754
  }
]

# input Provide human recombinant HDAC6 (Homo sapiens, UniProt Q9UBN7) HDAC6 selectivity (fold) reading for Fc1cc(-c2nnc(C(F)F)o2)ccc1Cn1cc(-c2cccc(CN3CC(F)(F)C3)c2)nn1 .
# output 837

# input Name the recorded HDAC6 selectivity (fold) of Fc1ccccc1-c1cn(Cc2ccc(-c3nnc(C(F)F)o3)cn2)nn1 , assay system human recombinant HDAC6 (Homo sapiens, UniProt Q9UBN7).
# output 1612

# input Return reported HDAC6 selectivity (fold) for target or system human recombinant HDAC6 (Homo sapiens, UniProt Q9UBN7), item CC(=O)N1CCC(F)(c2cn(Cc3ccc(-c4nnc(C(F)F)o4)cn3)nn2)CC1 .
# output 405

# input Would you please give the reported HDAC6 selectivity (fold) of CC(C)N1CCN(c2cc(-c3cn(Cc4ccc(-c5nnc(C(F)F)o5)cc4F)nn3)ccc2F)CC1 with human recombinant HDAC6 (Homo sapiens, UniProt Q9UBN7)?
# output 431

# input Enter HDAC6 selectivity (fold) (test system human recombinant HDAC6 (Homo sapiens, UniProt Q9UBN7)) for FC(F)c1nnc(-c2ccc(Cn3cc(-c4ccc5c(c4)CCN(C4CCC4)C5)nn3)nc2)o1
# output 1094

# input Give measured HDAC6 selectivity (fold) for COC(=O)N1CCC(c2cn(Cc3ccc(-c4nnc(C(F)F)o4)cn3)nn2)CC1 (human recombinant HDAC6 (Homo sapiens, UniProt Q9UBN7)).
# output 287

# input Report its HDAC6 selectivity (fold) with human recombinant HDAC6 (Homo sapiens, UniProt Q9UBN7) as the test system: Fc1cc(-c2nnc(C(F)F)o2)ccc1Cn1cc(-c2cccc3[nH]ncc23)nn1
# output 7352

# input Given CC1CCN(Cc2c[nH]c3cc(-c4cn(Cc5ccc(-c6nnc(C(F)F)o6)cn5)nn4)ccc23)CC1 , report its HDAC6 selectivity (fold) on human recombinant HDAC6 (Homo sapiens, UniProt Q9UBN7).
# output 4587

# input Fill: HDAC6 selectivity (fold) (human recombinant HDAC6 (Homo sapiens, UniProt Q9UBN7)) for this molecule Fc1cc(-c2nnc(C(F)F)o2)ccc1Cn1cc(-c2cccc(N3C[C@@H]4C[C@H]3CN4C3CCC3)c2)nn1
# output 1470

# input State HDAC6 selectivity (fold) (human recombinant HDAC6 (Homo sapiens, UniProt Q9UBN7)) of CN(C)C1CCN(Cc2ccc(-c3cn(Cc4ccc(-c5nnc(C(F)F)o5)cc4F)nn3)cc2)CC1 .
# output 1466

# input // fetch HDAC6 selectivity (fold); item: FC(F)c1nnc(-c2ccc(Cn3cc(C4CCN(C5CC6(COC6)C5)CC4)nn3)nc2)o1 ; system: human recombinant HDAC6 (Homo sapiens, UniProt Q9UBN7)
# output 178

# input # lookup: human recombinant HDAC6 (Homo sapiens, UniProt Q9UBN7) HDAC6 selectivity (fold), key = CC(C)(C)OC(=O)NC1(C(=O)Nc2cccc(-c3cn(Cc4ccc(-c5nnc(C(F)F)o5)cn4)nn3)c2)CCC1
# output 3355

# input Please respond with reported HDAC6 selectivity (fold) (system human recombinant HDAC6 (Homo sapiens, UniProt Q9UBN7)) for CC(=O)N1CCC(Nc2ccc(F)c(-c3cn(Cc4ccc(-c5nnc(C(F)F)o5)cc4F)nn3)c2)CC1 .
# output 600

# input Specify the recorded HDAC6 selectivity (fold) for FC(F)c1nnc(-c2ccc(Cn3cc(-c4cccc(N5C[C@@H]6C[C@H]5CN6)c4)nn3)cc2)o1 , system: human recombinant HDAC6 (Homo sapiens, UniProt Q9UBN7).
# output 598

# input Under human recombinant HDAC6 (Homo sapiens, UniProt Q9UBN7): report HDAC6 selectivity (fold) of CC(C)(C)OC(=O)N1CCC(F)(c2cn(Cc3ccc(-c4nnc(C(F)F)o4)cn3)nn2)CC1 .
# output 575

# input Find the measured HDAC6 selectivity (fold) of Fc1cc(-c2nnc(C(F)F)o2)ccc1Cn1cc(-c2ccc(F)c(N3CCN(C4CCC4)CC3)c2)nn1 with human recombinant HDAC6 (Homo sapiens, UniProt Q9UBN7) as test system.
# output 334
